Data origin: patent US9718823B2

target: PI3 K γ (Homo sapiens); construct: purchased Biology, Medicilon; test: Inhibitory activity to PI3K γ, PI 3-Kinase (human) HTRF Assay kit; assay type: biochemical; conditions: 1 μM; read-out: Inhibition rate % to PI3 K γ
Sequence (P48736 whole entry): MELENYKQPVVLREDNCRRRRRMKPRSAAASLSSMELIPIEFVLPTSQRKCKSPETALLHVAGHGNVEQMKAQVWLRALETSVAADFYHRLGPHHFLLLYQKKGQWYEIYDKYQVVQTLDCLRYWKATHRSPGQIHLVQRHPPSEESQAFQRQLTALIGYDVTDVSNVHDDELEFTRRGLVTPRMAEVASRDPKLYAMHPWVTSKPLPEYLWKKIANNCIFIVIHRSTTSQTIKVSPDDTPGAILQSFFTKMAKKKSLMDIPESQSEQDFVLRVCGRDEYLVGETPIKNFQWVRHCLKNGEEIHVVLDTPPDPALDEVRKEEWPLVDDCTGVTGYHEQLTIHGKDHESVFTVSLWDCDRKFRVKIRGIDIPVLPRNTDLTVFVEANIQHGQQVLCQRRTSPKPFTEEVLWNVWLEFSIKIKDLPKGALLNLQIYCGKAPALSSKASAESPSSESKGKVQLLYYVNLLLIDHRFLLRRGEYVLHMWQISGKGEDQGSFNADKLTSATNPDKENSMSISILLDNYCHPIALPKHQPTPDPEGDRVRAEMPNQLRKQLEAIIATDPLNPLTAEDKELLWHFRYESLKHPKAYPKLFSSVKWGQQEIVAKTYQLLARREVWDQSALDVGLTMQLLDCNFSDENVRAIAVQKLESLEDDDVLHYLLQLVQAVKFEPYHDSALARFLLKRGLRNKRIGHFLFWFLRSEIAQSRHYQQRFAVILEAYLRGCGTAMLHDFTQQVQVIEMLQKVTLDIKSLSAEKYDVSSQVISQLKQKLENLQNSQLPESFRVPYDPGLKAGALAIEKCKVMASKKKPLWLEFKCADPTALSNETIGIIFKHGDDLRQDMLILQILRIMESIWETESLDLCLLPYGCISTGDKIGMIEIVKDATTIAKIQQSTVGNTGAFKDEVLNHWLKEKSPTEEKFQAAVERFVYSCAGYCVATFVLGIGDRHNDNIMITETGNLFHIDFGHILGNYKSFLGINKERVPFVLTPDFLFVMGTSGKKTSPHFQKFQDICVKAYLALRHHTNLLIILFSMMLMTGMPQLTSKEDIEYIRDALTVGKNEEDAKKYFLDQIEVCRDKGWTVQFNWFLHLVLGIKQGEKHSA
endpoint label: inhibition at 1 µM (%)

OCCNc1nc(Nc2ccc3nccc(-c4ccccc4)c3c2)nc2[nH]cnc12 [MED1007-69]; 1.27
COC[C@H]1OC(=O)c2coc3c2[C@@]1(C)C1=C(C3=O)[C@@H]2CCC(=O)[C@@]2(C)C[C@H]1OC(C)=O [Wortmannin, reference compound]; 105
COc1ccccc1-c1ccnc2ccc(Nc3nc(NC4CC4)c4nc[nH]c4n3)cc12 [MED1007-86]; 8.35

A. c1ccc(Oc2nc(Nc3ccc4nccc(N5CCNCC5)c4c3)nc3[nH]cnc23)cc1 [MED1007-54]
B. c1ccc(-c2ccnc3ccc(Nc4nc(NCC5CCCC5)c5nc[nH]c5n4)cc23)cc1 [MED1007-99]
C. c1cnc2ccc(Nc3nc(OC4CCC4)c4nc[nH]c4n3)cc2c1 [MED1007-97]
D. CC(C)Oc1nc(Nc2ccc3nccc(N4CCNCC4)c3c2)nc2[nH]cnc12 [MED1007-58]
E. c1cc(N2CCNCC2)c2cc(Nc3nc(NC4CC4)c4nc[nH]c4n3)ccc2n1 [MED1007-33]
Qu. rank_up(items): orders items by reported inhibition at 1 µM in ascending numerical order. Answer format: the labels, ordered as requested.
Ans. A, D, B, E, C
(A: -6.81%, D: -0.29%, B: 4.68%, E: 21%, C: 74.7%)

A. CC(C)Oc1nc(Nc2ccc3ncccc3c2)nc2[nH]cnc12 [MED1007-34]
B. COCCCNc1nc(Nc2ccc3nccc(-c4ccccc4)c3c2)nc2[nH]cnc12 [MED1007-67]
Qu. Of A versus B , which is the one with smaller reported inhibition at 1 µM? # respond with the chosen item's label
Ans. B

a. COC(=O)c1ccc(-c2ccnc3ccc(Nc4nc(NC5CC5)c5nc[nH]c5n4)cc23)cc1 [MED1007-59]
b. COC(=O)C1(Nc2nc(Nc3ccc4nccc(-c5ccccc5)c4c3)nc3[nH]cnc23)CC1 [MED1007-15]
Qu. Of a versus b , which is the one with smaller reported inhibition at 1 µM? # respond with the chosen item's label
Ans. a

I. COc1cccc(-c2ccnc3ccc(Nc4nc(NC5CCC5)c5nc[nH]c5n4)cc23)c1 [MED1007-71]
II. CSc1cccc(-c2ccnc3ccc(Nc4nc(NC5CC5)c5nc[nH]c5n4)cc23)c1 [MED1007-88]
III. COCCNc1nc(Nc2ccc3nccc(-c4ccccc4)c3c2)nc2[nH]cnc12 [MED1007-68]
Qu. rank_up(items): orders items by reported inhibition at 1 µM in ascending numerical order. Answer format: the labels, ordered as requested.
Ans. III, I, II
(III: -0.02%, I: 2.55%, II: 7.02%)

I. Fc1ccc(-c2ccnc3ccc(Nc4nc(NC5CCC5)c5nc[nH]c5n4)cc23)cc1 [MED1007-72]
II. COc1ccc(-c2ccnc3ccc(Nc4nc(NC5CC5)c5nc[nH]c5n4)cc23)cc1OC [MED1007-84]
Qu. Of I versus II , which is the one with smaller reported inhibition at 1 µM? # respond with the chosen item's label
Ans. I
